# assayRemarks: NFAT Signaling Pathway (AID 444);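 also: carbachol stimulus at about its EC50 of 1 µM final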
# reportedConditions: Jurkat NFAT-bla M1, carbachol, beta-lactamase ratio, 5 h; at 17.2 µM (top of the series) unless noted
Records with an inconclusive call do not appear. Calls of active or inactive are those of the source. Calls follow the shape of the dose curve; as a rule, active = well fitted curve in either direction with a large enough effect (not every such curve was filed as active); inconclusive = small, poorly fitted or top-dose-only effect, or another doubt; inactive = flat fitted curve, though single readings scatter.
Hi! Could you answer with just one of these? yes for active, no for inactive

The examples below pair each entry with its known result.
Answer briefly: the call reported for CN(C)CCOC(=O)Cc1ccc(Cl)cc1 in this assay.
no

And then Clc1ccccc1-c1nn2c(-c3ccccn3)nnc2s1 , what is it?
no

Then what about the compound Cc1cc(C)n(-c2c(F)c(F)c(CN3CCCCC3)c(F)c2F)n1 ?
no

Try this compound next: CC(=O)C1=C(NC(=O)c2ccccc2F)C[C@@H]2[C@H]1C2(C)C
no

More entries:
Hi, do you know how O=C(/C=C\c1ccc(O)c(O)c1)OCCc1ccccc1 came out in this test?
no

Entry CCOC(=O)c1c(C)n(C)c2ccc(OC)c(NC(=O)CN3CCN(Cc4ccccc4)CC3)c12 please
no

Request: O/N=C1\CCc2cc(Cl)ccc21
no
